B1: CPEB3 Ribozyme (parent)
chain: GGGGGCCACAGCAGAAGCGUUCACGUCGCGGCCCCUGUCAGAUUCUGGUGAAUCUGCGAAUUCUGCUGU

Variants of: B1
assay: self-cleavage, relative activity (ratio to wild type); higher = more cleavage; co-transcriptional
Mark criterion met for reported self-cleavage of 0.4 or greater; mark criterion not met for anything smaller.

Consider the following illustrative entries.
| variant-description | label-value |
| --- | --- |
| G30A G47C | criterion met |
| C35G G68C | criterion met |
| G19U U62A | criterion not met |
| G37A U62C | criterion not met |

Here's the next entry for you.
Data request: Could you please find out whether A13U G65U has self-cleavage that meets 0.4 or exceeds it?
Data returned: criterion met

From: the RNAGym collection of RNA variant scans (doi:10.7554/elife.80360)
